- assay-text: probe aLefty2 binding to arrayed compounds – biochemical, biotinylated probe, 635/667 nm fluorescence, primary screen (AID 1094);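 further: score merges spot fluorescence near 667 nm with spot signal-to-noise ratio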
- run-conditions: small-molecule microarray, higher = more signal
Classify as follows. Reported composite z-score greater than or equal to -0.1: satisfied. Reported composite z-score below: not satisfied.

Some entries whose results are on file:
C=CCNC(=O)[C@@H]1[C@H]2C(=O)O[C@H](c3ccccc3)[C@H](c3ccccc3)N2[C@H](c2ccc(O)cc2)[C@@]12C(=O)N(C(=O)OCCOC)c1ccc(C#CC3=CCCCC3)cc12 :: not satisfied
O=C1[C@H]2C=C(I)[C@H](C[C@@H]2OCCOCCO)[C@@]12CO2 :: not satisfied

q: hey, is composite z-score for this one >= -0.1? CCCCN1CC=CC23O[C@@H]4/C=C\CCC(C)OC(=O)C4[C@H]2C(=O)N(CCCO)[C@@H]3C1=O (some centres undefined)
a: not satisfied

q: hey, is composite z-score for this one >= -0.1? `NC(=O)NCC#Cc1ccc2c(c1)[C@]1(C(=O)N2)[C@H](c2ccccc2OCCO)N2[C@H](c3ccccc3)[C@H](c3ccccc3)OC(=O)[C@H]2[C@@H]1C(=O)NC[C@H](O)c1ccccc1`
a: satisfied

q: hey, is composite z-score for this one >= -0.1? `Cc1ccc(S[C@]2(C(=O)NC(C)C)CC(=O)N(Cc3cc(C(F)(F)F)cc(C(F)(F)F)c3)[C@@H]2c2ccc(CO)cc2)cc1`
a: not satisfied

q: hey, is composite z-score for this one >= -0.1? `CCOC(=O)C1=C[C@@H](C(C)C)N(S(=O)(=O)c2ccc(C)cc2)[C@H]1c1ccc(C(F)(F)F)cc1`
a: satisfied

q: hey, is composite z-score for this one >= -0.1? `COC(=O)[C@@]1(Cc2ccc(OC)cc2)[C@H]2c3cc(C(=O)N(C)C)n(Cc4ccc(C)o4)c3C[C@H]2CN1C(=O)c1ccccc1`
a: satisfied

q: hey, is composite z-score for this one >= -0.1? `C=CCNC(=O)[C@H]1[C@@H]2C(=O)O[C@@H](c3ccccc3)[C@@H](c3ccccc3)N2[C@@H](c2ccccc2OCCO)[C@]12C(=O)N(C(=O)OCCOC)c1ccc(C#CC3(O)CCCCCC3)cc12`
a: satisfied

q: hey, is composite z-score for this one >= -0.1? CCCCC(CC)C(O)C1C=CC2C(=O)N(c3ccccc3)C(=O)C2N1Nc1ccc(C#N)cc1 (centres undefined)
a: satisfied

q: hey, is composite z-score for this one >= -0.1? O=C(Cc1ccccc1)[C@H]1C2C=CCCC(c3ccccc3)=C2CN1Cc1ccccc1 (some centres undefined)
a: not satisfied

q: hey, is composite z-score for this one >= -0.1? O=C1OCCC=C[C@H]2OC34C=CCN(c5ccc6ccccc6c5)C(=O)[C@H]3N(CCCO)C(=O)[C@@H]4C12 (some centres undefined)
a: not satisfied

q: hey, is composite z-score for this one >= -0.1? `C=CCNC(=O)[C@@H]1[C@H]2C(=O)O[C@H](c3ccccc3)[C@H](c3ccccc3)N2[C@H](c2ccccc2OCCO)[C@@]12C(=O)Nc1ccc(C#CCCO)cc12`
a: not satisfied

q: hey, is composite z-score for this one >= -0.1? COc1cc(NN2C(C(O)c3cc(OC)c(OC)c(OC)c3)C=CC3C(=O)N(C)C(=O)C32)cc(OC)c1OC (centres undefined)
a: satisfied

Ref: PubChem BioAssay
